# Tested on: NCI-H522 lung
# experiment: NCI tumour cell line growth inhibition, 48 h
In this section we review reported TGI values for a set of compounds.

compound | experimental-target | TGI
CC1=CC(=O)CC2(C)CCC(C(C)CC(=O)CC(C)C)CC12 (stereo not given) | NCI-H522 lung | 30.8 µM
COc1ccc(/C=N/N2C(=O)c3c(N)c(C#N)c(-c4ccccc4)c(-c4ccccc4)c3C2=O)cc1 | NCI-H522 lung | > 100 µM
COC(=O)C1(Cc2ccc3c(c2)CCC3)Cc2ccccc2C1=O (stereo not given) | NCI-H522 lung | 31.5 µM
CC1(C)OC2CC(=O)OCC23C1CC(=O)C1(C)C3CCC2(C)C(c3ccoc3)OC(=O)C3OC321 (stereo not given) | NCI-H522 lung | > 125 µM
COC(=O)C1=C(O)C(C(=O)OC)[C@@]2(O)[C@@H](C(=O)OC)[C@H](C)[C@@H](C)[C@@H]1[C@@H]2C(=O)OC (stereo not given in full) | NCI-H522 lung | 92.2 µM
